Assay: Compound solubility limit in transporter assay buffer
Format: physicochemical
Conditions: aqueous buffer; BSEP, MRP3, MRP4 vesicular transport assays; read-out: upper limit of compound solubility
Experimental: To assess the functional impact of ubrogepant on the human ABC efflux transporters BSEP, MRP3, and MRP4, in vitro vesicular transport inhibition assays were conducted by Solvo Biotechnology (Szeged, Hungary). The ability of ubrogepant to inhibit the BSEP-mediated transport (and accumulation) of a probe substrate was tested at concentrations ranging from 0.04 – 30 μM, where the latter defined the upper limit of compound solubility in the BSEP assay buffer. […]
measure: solubility

Problem: Tell me measured solubility for O=C(N[C@@H]1CC[C@@H](c2cccc(F)c2F)CN(CC(F)(F)F)C1=O)N1CCC(n2c(=O)[nH]c3ncccc32)CC1 [Telcagepant] please.
Solution: 20 µM

====

Target: MRP3 (Homo sapiens, UniProt O15438)
Construct: Solvo Biotechnology (Szeged, Hungary), contract laboratory that ran the assay
Sequence (O15438 whole entry): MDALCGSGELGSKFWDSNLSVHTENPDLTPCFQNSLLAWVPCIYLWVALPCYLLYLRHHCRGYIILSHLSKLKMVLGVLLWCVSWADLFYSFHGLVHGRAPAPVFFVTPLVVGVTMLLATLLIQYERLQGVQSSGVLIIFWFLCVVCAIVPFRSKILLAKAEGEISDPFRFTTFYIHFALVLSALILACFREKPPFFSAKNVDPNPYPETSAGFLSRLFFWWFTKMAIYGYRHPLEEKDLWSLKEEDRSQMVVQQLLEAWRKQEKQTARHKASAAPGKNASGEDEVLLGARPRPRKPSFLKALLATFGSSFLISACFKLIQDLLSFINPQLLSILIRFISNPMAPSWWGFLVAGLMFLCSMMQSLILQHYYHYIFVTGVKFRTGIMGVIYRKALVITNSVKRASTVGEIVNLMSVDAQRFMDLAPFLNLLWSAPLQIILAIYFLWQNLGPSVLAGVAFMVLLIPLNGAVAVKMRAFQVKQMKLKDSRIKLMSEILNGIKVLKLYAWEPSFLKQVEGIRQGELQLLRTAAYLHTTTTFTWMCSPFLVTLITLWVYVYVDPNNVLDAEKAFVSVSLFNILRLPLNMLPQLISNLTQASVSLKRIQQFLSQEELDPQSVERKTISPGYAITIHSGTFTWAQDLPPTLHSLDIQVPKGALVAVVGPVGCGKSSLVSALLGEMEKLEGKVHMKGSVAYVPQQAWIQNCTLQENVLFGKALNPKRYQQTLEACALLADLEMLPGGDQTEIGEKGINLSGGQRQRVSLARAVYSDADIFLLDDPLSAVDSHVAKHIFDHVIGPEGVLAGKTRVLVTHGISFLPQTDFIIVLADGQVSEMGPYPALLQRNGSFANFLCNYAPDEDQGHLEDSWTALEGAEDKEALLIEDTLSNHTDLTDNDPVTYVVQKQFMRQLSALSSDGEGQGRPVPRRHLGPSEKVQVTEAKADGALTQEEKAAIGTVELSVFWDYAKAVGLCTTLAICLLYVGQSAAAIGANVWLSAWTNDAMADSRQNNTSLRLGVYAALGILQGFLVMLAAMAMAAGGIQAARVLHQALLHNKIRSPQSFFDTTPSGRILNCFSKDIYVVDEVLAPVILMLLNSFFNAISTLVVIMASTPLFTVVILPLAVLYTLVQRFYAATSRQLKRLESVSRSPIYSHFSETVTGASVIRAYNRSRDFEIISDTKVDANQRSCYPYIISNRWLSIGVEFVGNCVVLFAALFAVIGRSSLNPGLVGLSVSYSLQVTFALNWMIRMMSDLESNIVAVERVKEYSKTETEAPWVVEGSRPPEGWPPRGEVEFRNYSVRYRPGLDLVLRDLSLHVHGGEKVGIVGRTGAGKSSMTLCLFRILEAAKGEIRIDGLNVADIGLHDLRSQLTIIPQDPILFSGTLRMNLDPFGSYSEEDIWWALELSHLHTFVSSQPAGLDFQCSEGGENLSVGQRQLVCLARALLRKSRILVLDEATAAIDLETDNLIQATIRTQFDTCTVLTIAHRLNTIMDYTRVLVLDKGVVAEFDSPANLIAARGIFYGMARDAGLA
Experiment: MRP3 vesicular transport inhibition assay
Type: biochemical
Settings: used as basolateral transporter inhibition constant; read-out: MRP3 calculated IC50
measure: pIC50
Numbers only, as −log10 of the molar value.

Problem: Return value of pIC50 for input "O=C(CN1C(=O)C2(CCCC2)NC[C@H]1c1cc(F)cc(F)c1)Nc1ccc2c(c1)C[C@@]1(C2)C(=O)Nc2ncccc21" , no commentary.
Solution: 4.30

====

Molecular target: MRP4 (Homo sapiens, UniProt O15439)
Construct: Solvo Biotechnology (Szeged, Hungary), contract laboratory that ran the assay
Sequence (O15439 whole entry): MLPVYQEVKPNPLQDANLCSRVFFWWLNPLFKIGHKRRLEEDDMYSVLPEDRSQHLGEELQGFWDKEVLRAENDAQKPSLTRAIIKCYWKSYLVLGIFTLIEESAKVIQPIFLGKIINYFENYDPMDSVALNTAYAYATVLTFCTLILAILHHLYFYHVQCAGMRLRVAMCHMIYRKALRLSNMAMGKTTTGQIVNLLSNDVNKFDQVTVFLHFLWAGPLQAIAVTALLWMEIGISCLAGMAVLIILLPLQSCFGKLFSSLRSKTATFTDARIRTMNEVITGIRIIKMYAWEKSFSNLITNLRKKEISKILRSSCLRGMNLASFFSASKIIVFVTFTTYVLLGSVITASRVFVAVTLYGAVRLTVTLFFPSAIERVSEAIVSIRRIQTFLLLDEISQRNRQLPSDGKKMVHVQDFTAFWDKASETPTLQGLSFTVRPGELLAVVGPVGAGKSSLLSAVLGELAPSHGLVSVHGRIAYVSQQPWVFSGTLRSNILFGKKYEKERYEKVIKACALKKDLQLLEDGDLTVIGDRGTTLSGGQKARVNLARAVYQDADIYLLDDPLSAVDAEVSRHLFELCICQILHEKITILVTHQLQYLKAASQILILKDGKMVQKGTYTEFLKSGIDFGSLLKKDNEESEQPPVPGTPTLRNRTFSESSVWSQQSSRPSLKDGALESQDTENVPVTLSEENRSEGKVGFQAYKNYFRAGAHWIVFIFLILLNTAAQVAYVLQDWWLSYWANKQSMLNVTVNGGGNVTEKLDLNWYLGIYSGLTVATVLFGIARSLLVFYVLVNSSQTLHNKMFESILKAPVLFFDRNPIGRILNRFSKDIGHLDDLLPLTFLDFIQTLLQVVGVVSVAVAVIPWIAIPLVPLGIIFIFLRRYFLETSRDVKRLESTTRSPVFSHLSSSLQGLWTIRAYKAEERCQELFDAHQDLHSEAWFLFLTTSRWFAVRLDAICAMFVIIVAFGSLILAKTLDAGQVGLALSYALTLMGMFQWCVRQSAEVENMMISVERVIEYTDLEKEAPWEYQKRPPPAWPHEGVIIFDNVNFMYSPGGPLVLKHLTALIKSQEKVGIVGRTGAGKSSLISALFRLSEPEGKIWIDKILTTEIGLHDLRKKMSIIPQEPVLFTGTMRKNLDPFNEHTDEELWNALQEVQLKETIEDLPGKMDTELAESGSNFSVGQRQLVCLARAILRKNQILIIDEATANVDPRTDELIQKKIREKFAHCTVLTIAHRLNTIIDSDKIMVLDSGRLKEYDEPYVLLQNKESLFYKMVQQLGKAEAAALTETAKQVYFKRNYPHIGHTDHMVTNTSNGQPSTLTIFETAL
Assay: MRP4 vesicular transport inhibition assay
Format: biochemical
Conditions: human, membrane vesicles with MRP4 (vesicular transport assay); 70 µM (solubility limit); read-out: maximum inhibition at the highest concentration tested, MRP4
measure: inhibition at 70 µM

Problem: Using known records, supply inhibition at 70 µM for "C[C@@H]1[C@H](c2ccccc2)C[C@H](NC(=O)c2cnc3c(c2)C[C@@]2(C3)C(=O)Nc3ncccc32)C(=O)N1CC(F)(F)F"
Solution: < 50%

====

Assay: Compound solubility limit in transporter assay buffer
Assay type: physicochemical
Settings: BSEP assay buffer; read-out: upper limit of compound solubility
measure: solubility (µM)
One number for each entry, in µM.

Problem: Let me know recorded solubility for "O=C(CN1C(=O)C2(CCCC2)NC[C@H]1c1cc(F)cc(F)c1)Nc1ccc2c(c1)C[C@@]1(C2)C(=O)Nc2ncccc21" , thanks.
Solution: 30

====

Would you mind telling me the reported solubility of each entry?
Assay: Compound solubility limit in transporter assay buffer
Type: physicochemical
Settings: MRP3 and MRP4 assay buffer, aqueous buffer; read-out: upper limit of compound solubility
One number for each entry, in µM.

cpd_smiles	solubility (µM)
C[C@@H]1[C@H](c2ccccc2)C[C@H](NC(=O)c2cnc3c(c2)C[C@@]2(C3)C(=O)Nc3ncccc32)C(=O)N1CC(F)(F)F	70

Kindly consider the entry below.
Problem: Supply measured solubility of "O=C(CN1C(=O)C2(CCCC2)NC[C@H]1c1cc(F)cc(F)c1)Nc1ccc2c(c1)C[C@@]1(C2)C(=O)Nc2ncccc21" in your reply.
Solution: 80

====

Biological target: MRP3 (Homo sapiens, UniProt O15438)
Construct: Solvo Biotechnology (Szeged, Hungary), contract laboratory that ran the assay
Assay: MRP3 vesicular transport inhibition assay
Type: biochemical
Conditions: curve fitting assuming maximum inhibition at higher concentrations is 100%; read-out: MRP3 estimated lowest possible IC50
pIC50: −log10 of the molar value.
measure: pIC50

molecule	pIC50
C[C@@H]1[C@H](c2ccccc2)C[C@H](NC(=O)c2cnc3c(c2)C[C@@]2(C3)C(=O)Nc3ncccc32)C(=O)N1CC(F)(F)F [Ubrogepant]	≤ 4.07

Kindly consider the entry below.
Problem: Consider the molecule O=C(N[C@@H]1CC[C@@H](c2cccc(F)c2F)CN(CC(F)(F)F)C1=O)N1CCC(n2c(=O)[nH]c3ncccc32)CC1 [Telcagepant] and give its recorded pIC50.
Solution: ≤ 4.78

This collection of values is drawn from paper PMC8312697.
